Reference source: PubChem BioAssay AID1159580

# procedure details: chemical genetic growth profiling, strain panel (AID 1159580);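 also: tested at 20 µM; growth read once vehicle control cultures reached saturation at 30 °C; 1 = growth at the plate median or of vehicle wells; lower values mean less growth of the strain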
# conditions: S. cerevisiae deletion strains, growth OD, locus YML070W, strain DAK1, hits give low values
The campaign covered roughly 5,500 compounds. About 2,000 (36%) were called active. About 18% were inconclusive and are not listed. This is one part of the list.
metric name: normalized growth
Numbers only.

Illustrative cases are given below, each with its answer.
{"columns": ["smi", "normalized growth"],
 "data": [
  ["O=C(OCc1ccc(Oc2ccc(Cl)cc2Cl)c([N+](=O)[O-])c1)c1ccc([N+](=O)[O-])o1", 1],
  ["COC(=O)c1ccc(Oc2c(C(F)(F)F)oc3cc(O)ccc3c2=O)cc1", 0.934],
  ["O=C(NCc1ccc(F)c(Cl)c1)Nc1csc([N+](=O)[O-])c1", 0.938],
  ["CC(=O)Oc1ccc2c(=O)c(Oc3ccc(Cl)cc3)c(C)oc2c1", 0.921],
  ["NNC(=O)COc1ccc(C2SCCS2)cc1", 0.145],
  ["COc1cc(OC)cc(/C(N)=N\\O)c1", 0.943]
]}

Please supply normalized growth for each of the following items, keeping them in order.
1. CC(C)(C)c1cc(C(=O)/C(C#N)=N\Nc2ccc(Cl)cc2)no1
2. CN(C)c1nc(=S)ss1

Reply |
1: 0.137; 2: 0.199

Lab note: each molecule below needs its normalized growth filled in.
1. CC(/C=C/c1ccccc1)=N/OC(=O)c1ccccc1Cl
2. O=C(O)c1cccc2cccc(C(=O)O)c12
3. O=C(SCc1c(Cl)cccc1Cl)c1ccc([N+](=O)[O-])o1
4. O=C(NNc1c(Cl)cccc1Cl)c1ccc([N+](=O)[O-])o1

Reply |
[0.849, 0.117, 0.547, 0.884]
